Here, each record is paired with measured inhibition at 500 µM data.
# Target Of Assay: PfCRT^3D7 (Plasmodium falciparum)
# Sequence (Q8IBZ9 59-398): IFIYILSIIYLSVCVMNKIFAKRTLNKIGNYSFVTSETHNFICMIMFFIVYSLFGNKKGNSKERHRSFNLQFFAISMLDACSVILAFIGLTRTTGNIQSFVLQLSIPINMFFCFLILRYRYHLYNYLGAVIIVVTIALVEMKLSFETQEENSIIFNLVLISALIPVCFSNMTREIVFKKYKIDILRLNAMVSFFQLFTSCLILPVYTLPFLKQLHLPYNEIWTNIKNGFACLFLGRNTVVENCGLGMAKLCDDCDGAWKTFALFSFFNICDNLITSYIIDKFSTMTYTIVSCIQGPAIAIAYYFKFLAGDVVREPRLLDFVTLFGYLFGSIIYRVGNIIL
# Assay Name: cell-based
# Type: cell-based
# Protocol Conditions: PfCRT3D7 oocytes; [test solute] = 0.5 mM; total [3H]CQ transport, normalised to the oocyte type control; read-out: Uptake of [3H]CQ (% PfCRT3D7 control), cis-inhibition
Quick reminder: number only, in %, skip the unit.

Examples with answers:
Molecule: N[C@@H](Cc1ccccc1)C(=O)O [L-phenylalanine]
Measured Result: 99
--
Molecule: N=C(N)NCCC[C@H](N)C(=O)O [L-arginine]
Measured Result: 100
--
Molecule: N[C@@H](Cc1c[nH]c2ccccc12)C(=O)O [L-tryptophan]
Measured Result: 100
--
Molecule: N[C@@H](CS)C(=O)O [L-cysteine]
Measured Result: 99
--
Molecule: N[C@@H](CO)C(=O)O [L-serine]
Measured Result: 98
--
Molecule: C[C@H](N)C(=O)O [L-alanine]
Measured Result: 99
--
Molecule: N[C@@H](CCC(=O)O)C(=O)O [L-glutamic acid]
Measured Result: 100
--
Molecule: CC(C)C[C@H](N)C(=O)O [L-leucine]
Measured Result: 98

Now for a further molecule.
Lookup result for CC[C@H](C)[C@H](N)C(=O)O [L-isoleucine] ; measured inhibition at 500 µM: 99
